Every entry's value here was drawn from patent US9611249B2.

Molecular target: FGFR4 kinase (h) (Homo sapiens (Human))
Sequence (P22455 22-802): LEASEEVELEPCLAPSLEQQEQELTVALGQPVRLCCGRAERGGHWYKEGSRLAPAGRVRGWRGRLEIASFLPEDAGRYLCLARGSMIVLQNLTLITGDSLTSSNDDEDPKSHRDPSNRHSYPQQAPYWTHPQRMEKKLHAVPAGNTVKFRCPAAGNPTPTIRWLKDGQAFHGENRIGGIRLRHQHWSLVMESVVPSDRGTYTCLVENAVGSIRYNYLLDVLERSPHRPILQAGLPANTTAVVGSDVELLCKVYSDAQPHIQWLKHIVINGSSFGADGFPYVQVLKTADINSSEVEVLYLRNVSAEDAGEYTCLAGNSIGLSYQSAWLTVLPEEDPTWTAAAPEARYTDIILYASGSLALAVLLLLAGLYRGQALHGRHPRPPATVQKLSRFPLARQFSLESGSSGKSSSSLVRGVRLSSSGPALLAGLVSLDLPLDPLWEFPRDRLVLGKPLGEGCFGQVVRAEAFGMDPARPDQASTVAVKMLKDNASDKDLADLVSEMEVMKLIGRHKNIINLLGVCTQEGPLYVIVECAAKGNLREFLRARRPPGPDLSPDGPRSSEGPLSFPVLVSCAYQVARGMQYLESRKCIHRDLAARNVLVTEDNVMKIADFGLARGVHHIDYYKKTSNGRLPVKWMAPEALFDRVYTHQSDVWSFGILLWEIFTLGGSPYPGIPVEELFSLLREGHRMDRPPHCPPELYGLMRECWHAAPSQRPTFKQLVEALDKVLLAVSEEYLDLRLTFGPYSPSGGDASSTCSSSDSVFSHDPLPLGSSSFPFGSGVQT
Experiment: Kinase selectivity panel: FGFR4 kinase (h)
Format: biochemical
Settings: 10 μM in duplicate, read-out: % inhibition of control values
Property Name: inhibition at 10 µM

Structure Smiles | Measured Result
COc1ccc2[nH]nc(C(=O)NCC3CCN(CC(=O)O)CC3)c2c1 | 0%
COCCN1CCC(CNC(=O)c2n[nH]c3ccc(OC)cc23)CC1 | 0%
COCCN1CCC(CNC(=O)c2n[nH]c3ccc(-c4cccc(F)c4F)cc23)CC1 | 2%
COc1ccc2[nH]nc(C(=O)NCC3CCN(CCC(=O)O)CC3)c2c1 | 0%

* * *

Here, each record is paired with measured inhibition at 10 µM data.
Target: PKCgamma (h) (Homo sapiens (Human), UniProt P05129)
Experiment: Kinase selectivity panel: PKCgamma (h)
Assay type: biochemical
Settings: 10 μM in duplicate, read-out: % inhibition of control values
Property Name: inhibition at 10 µM (%)

Compound | Study System | Measured Result
COc1ccc2[nH]nc(C(=O)NCC3CCN(CCC(=O)O)CC3)c2c1 [Compound 3] | PKCgamma (h) (Homo sapiens (Human), UniProt P05129) | 2
COc1ccc2[nH]nc(C(=O)NCC3CCN(CC(=O)O)CC3)c2c1 [Compound 1] | PKCgamma (h) (Homo sapiens (Human), UniProt P05129) | 3
COCCN1CCC(CNC(=O)c2n[nH]c3ccc(OC)cc23)CC1 [Compound 2] | PKCgamma (h) (Homo sapiens (Human), UniProt P05129) | 0
COCCN1CCC(CNC(=O)c2n[nH]c3ccc(-c4cccc(F)c4F)cc23)CC1 [Compound 8] | PKCgamma (h) (Homo sapiens (Human), UniProt P05129) | 0

* * *

Molecular target: UniProt:Q99640
Sequence (Q99640 whole entry): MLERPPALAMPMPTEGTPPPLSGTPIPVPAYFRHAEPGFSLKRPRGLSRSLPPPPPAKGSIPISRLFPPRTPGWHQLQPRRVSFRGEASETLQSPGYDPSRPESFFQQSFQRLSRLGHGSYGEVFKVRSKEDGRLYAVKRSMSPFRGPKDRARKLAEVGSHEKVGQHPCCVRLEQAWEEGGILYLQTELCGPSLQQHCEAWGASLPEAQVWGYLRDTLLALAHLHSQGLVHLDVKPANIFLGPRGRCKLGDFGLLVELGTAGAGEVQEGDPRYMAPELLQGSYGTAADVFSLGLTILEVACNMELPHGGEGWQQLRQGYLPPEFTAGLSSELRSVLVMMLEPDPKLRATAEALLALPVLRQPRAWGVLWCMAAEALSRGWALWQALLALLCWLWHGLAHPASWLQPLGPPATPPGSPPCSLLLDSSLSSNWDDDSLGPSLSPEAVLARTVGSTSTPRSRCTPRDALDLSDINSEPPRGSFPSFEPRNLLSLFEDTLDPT
Test: Kinase selectivity panel: MYT1 kinase (h)
Type: biochemical
Details: 10 μM in duplicate, read-out: % inhibition of control values

Compound | Units | inhibition at 10 µM
COc1ccc2[nH]nc(C(=O)NCC3CCN(CC(=O)O)CC3)c2c1 [Compound 1] | % | 0
COc1ccc2[nH]nc(C(=O)NCC3CCN(CCC(=O)O)CC3)c2c1 [Compound 3] | % | 2
COCCN1CCC(CNC(=O)c2n[nH]c3ccc(-c4cccc(F)c4F)cc23)CC1 [Compound 8] | % | 20
COCCN1CCC(CNC(=O)c2n[nH]c3ccc(OC)cc23)CC1 [Compound 2] | % | 1

* * *

Biological target: human GSK-3β (Homo sapiens (Human))
Sequence (P49841 whole entry): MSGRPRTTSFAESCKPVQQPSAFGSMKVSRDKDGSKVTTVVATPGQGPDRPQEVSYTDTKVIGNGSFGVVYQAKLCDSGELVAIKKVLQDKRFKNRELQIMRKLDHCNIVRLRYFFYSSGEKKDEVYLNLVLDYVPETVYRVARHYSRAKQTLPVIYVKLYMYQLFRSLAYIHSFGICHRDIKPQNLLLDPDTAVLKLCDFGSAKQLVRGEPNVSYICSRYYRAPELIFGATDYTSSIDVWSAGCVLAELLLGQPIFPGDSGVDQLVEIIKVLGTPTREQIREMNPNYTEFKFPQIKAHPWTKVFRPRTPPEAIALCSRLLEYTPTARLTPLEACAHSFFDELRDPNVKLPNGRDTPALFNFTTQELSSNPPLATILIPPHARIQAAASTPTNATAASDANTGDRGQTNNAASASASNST
Experiment: GSK-3β LanthaScreen TR-FRET Eu Kinase binding and displacement assay
Conditions: compounds 16 to 41, LanthaScreen TR-FRET binding and displacement assay, five concentrations 100 μM to 10 nM
pIC50: −log10 of the molar value. Where a name gives a salt, the structure may show the parent alone.
Label class 1 when pIC50 is at or above 6; otherwise label class 0.

Compound | Discrete Label
O=C(O)CN1CCC(CNC(=O)c2n[nH]c3ccc(-c4cncnc4)cc23)CC1 [Compound 25, hydrate] | class 1
COCCN1CCC(CNC(=O)c2n[nH]c3ccc(-c4ccccc4C)cc23)CC1 | class 1
O=C(NCC1CCNCC1)c1n[nH]c2ccc(Br)cc12 [Compound 25b, hydrochloride] | class 1
COc1cncc(-c2ccc3[nH]nc(C(=O)NCC4CCN(CC(=O)O)CC4)c3c2)c1 | class 1
CCCCCc1ccc2[nH]nc(C(=O)NCC3CCN(CC(=O)O)CC3)c2c1 | class 0
